- System: Torsin-1A (Homo sapiens) (UniProt O14656)
- Sequence (O14656 whole entry, looked up): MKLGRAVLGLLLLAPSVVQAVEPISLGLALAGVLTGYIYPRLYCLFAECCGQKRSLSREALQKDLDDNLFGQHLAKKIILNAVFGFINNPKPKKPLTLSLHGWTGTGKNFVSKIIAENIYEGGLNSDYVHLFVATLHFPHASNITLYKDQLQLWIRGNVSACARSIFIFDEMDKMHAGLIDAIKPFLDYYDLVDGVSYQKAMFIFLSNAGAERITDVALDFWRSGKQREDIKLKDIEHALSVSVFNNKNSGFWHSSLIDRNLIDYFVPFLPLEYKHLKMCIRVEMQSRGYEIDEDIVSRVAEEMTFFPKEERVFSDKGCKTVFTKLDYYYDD
- Measurement description: small-molecule binders of mutant TOR1A in lysate, primary screen, cell lysate, small-molecule microarray, COS7 lysate, 635/667 nm fluorescence (AID 1150);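 also: score pools 667 nm emission and signal to noise measuring lysate protein binding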
- Applied conditions: COS7 hTOR1A mutant lysate, 635 nm fluorescence, higher = more signal
The threshold is inclusive: composite z-score of exactly 0.9 counts as fulfilled; values below receive not fulfilled.

C=CCOC(=O)[C@H]1[C@@H]2C(=O)O[C@@H](c3ccccc3)[C@@H](c3ccccc3)N2[C@@H](c2ccc(OCCOC(=O)[C@@H]3C[C@@H]4C(=O)N[C@@H](CC(C)C)C(=O)N4[C@@H]3c3ccc(O)cc3)cc2)[C@]12C(=O)Nc1ccc(I)cc12	fulfilled
CN1C(=O)[C@]2(CCS(=O)(=O)c3ccccc3)N=C(c3ccc(OCCCO)cc3)O[C@@H]2c2ccccc21	fulfilled
NC(=O)NCC#Cc1ccc2c(c1)[C@]1(C(=O)N2)[C@H](C(=O)Nc2nc3ccccc3s2)[C@H]2C(=O)O[C@H](c3ccccc3)[C@H](c3ccccc3)N2[C@@H]1c1ccc(OCCO)cc1	not fulfilled
CN(C)CCCNC(=O)[C@@]1(Cc2ccccc2I)c2ccccc2C(=O)N(Cc2ccccc2)[C@H]1c1ccc(CO)cc1	not fulfilled

Turning now to a further molecule:
Decide: composite z-score of `Cc1ccc(S[C@]2(C(=O)NC3CC3)CC(=O)N(Cc3cc(C(F)(F)F)cc(C(F)(F)F)c3)[C@@H]2c2ccc(CO)cc2I)cc1` >= 0.9?
not fulfilled

The reported numbers originate from PubChem BioAssay.
